# System: Mus musculus
# test: In vivo percent increase in life span relative to untreated controls in B6D2F1/J male mice at dose 60 mg/kg
# Assay type: functional
reported-metric: ILS at 60 mg/kg

Data request: Give its ILS at 60 mg/kg value. Item: COc1cccc2c1C(=O)c1c(O)c3c(c(O)c1C2=O)C[C@@](O)(C(=O)COC(=O)CCCCCCCCC(=O)O)C[C@@H]3OC1CC(NC(=O)C(F)(F)F)C(O)C(C)O1 (stereo partly drawn)
Data returned: > 445%

Data request: Give its ILS at 60 mg/kg value. Item: COc1cccc2c1C(=O)c1c(O)c3c(c(O)c1C2=O)C[C@@](O)(C(=O)COC(=O)CCCCCCCC(=O)O)C[C@@H]3OC1CC(NC(=O)C(F)(F)F)C(O)C(C)O1 (stereo partly drawn)
Data returned: > 445%

Data request: Give its ILS at 60 mg/kg value. Item: CCCCC(=O)OCC(=O)[C@]1(O)Cc2c(O)c3c(c(O)c2[C@@H](OC2CC(NC(=O)C(F)(F)F)C(O)C(C)O2)C1)C(=O)c1c(OC)cccc1C3=O (stereo partly drawn)
Data returned: > 445%

----------
# Tested on: CCRF-CEM
# test: In vitro inhibitory activity against CCRF-CEM cell growth in culture, after 48-h incubation.
# Format: functional
# test-settings: Homo sapiens, read-out: ID50 (the source's name)
Provide the recorded pIC50 for the entries that follow.
When answering, recall that pIC50 equals minus log10 of the concentration in mol/L, and write that number alone.

Data request: Give its pIC50 value. Item: CCCCC(=O)OCC(=O)[C@]1(O)Cc2c(O)c3c(c(O)c2[C@@H](OC2CC(NC(=O)C(F)(F)F)C(O)C(C)O2)C1)C(=O)c1c(OC)cccc1C3=O (stereo not given in full)
Data returned: 6.62

Data request: Give its pIC50 value. Item: `COc1cccc2c1C(=O)c1c(O)c3c(c(O)c1C2=O)C[C@@](O)(C(=O)CO)C[C@@H]3O[C@H]1C[C@H](N)[C@H](O)[C@H](C)O1`
Data returned: 7.30

Data request: Give its pIC50 value. Item: COc1cccc2c1C(=O)c1c(O)c3c(c(O)c1C2=O)C[C@@](O)(C(=O)COC(=O)CCCC(=O)O)C[C@@H]3OC1CC(NC(=O)C(F)(F)F)C(O)C(C)O1 (stereo not given in full)
Data returned: 6.55

Data request: Give its pIC50 value. Item: COc1cccc2c1C(=O)c1c(O)c3c(c(O)c1C2=O)C[C@@](O)(C(=O)COC(=O)CCC(=O)O)C[C@@H]3OC1CC(NC(=O)C(F)(F)F)C(O)C(C)O1 (stereo not given in full)
Data returned: 6.52

Data request: Give its pIC50 value. Item: COc1cccc2c1C(=O)c1c(O)c3c(c(O)c1C2=O)C[C@@](O)(C(=O)COC(=O)CCCCCCCC(=O)O)C[C@@H]3OC1CC(NC(=O)C(F)(F)F)C(O)C(C)O1 (stereo not given in full)
Data returned: 6.36

----------
# Tested on: Mus musculus
# test: In vivo percent increase in life span relative to untreated controls in B6D2F1/J male mice at dose 60 mg/kg
# Type: functional
reported-metric: ILS at 60 mg/kg

Data request: Give its ILS at 60 mg/kg value. Item: COc1cccc2c1C(=O)c1c(O)c3c(c(O)c1C2=O)C[C@@](O)(C(=O)COC(=O)CCCC(=O)O)C[C@@H]3OC1CC(NC(=O)C(F)(F)F)C(O)C(C)O1 (stereo partly drawn)
Data returned: > 445%

Data request: Give its ILS at 60 mg/kg value. Item: COc1cccc2c1C(=O)c1c(O)c3c(c(O)c1C2=O)C[C@@](O)(C(=O)COC(=O)CCCCCC(=O)O)C[C@@H]3OC1CC(NC(=O)C(F)(F)F)C(O)C(C)O1 (stereo partly drawn)
Data returned: > 445%

Data request: Give its ILS at 60 mg/kg value. Item: COc1cccc2c1C(=O)c1c(O)c3c(c(O)c1C2=O)C[C@@](O)(C(=O)COC(=O)CCCCC(=O)O)C[C@@H]3OC1CC(NC(=O)C(F)(F)F)C(O)C(C)O1 (stereo partly drawn)
Data returned: > 445%

Recorded values, source ChEMBL document CHEMBL1123031.
